Ref: PubChem BioAssay (NCI)

system: KM12 colon; experiment: NCI tumour cell line growth inhibition, 48 h
// reported TGI for each item listed
Give the quantity in µM, number only.

// solved cases for TGI follow
COc1cc(OC)cc(-c2nc3sccn3c2/C=N/N=C(N)N)c1	10.3
CCCCCCCCCCCCCCCCNCC(O)CN (stereo unspecified)	3.66
CC/C=C\C[C@H](O)C/C=C1/C(=O)C=C[C@@H]1C/C=C\CCCC(=O)OC(C)C	3.08

Below: the item to evaluate.
Query Oc1[nH]c(N=C2N=c3ccccc3=N2)c2ccccc12 on KM12 colon; TGI returned: 42.9

====

system: CAKI-1 renal; assay: NCI tumour cell line growth inhibition, 48 h
// reported log10 of TGI for each item listed
Quick note: numbers are log10 of TGI, with µM as the unit.

CCNC(=O)NNc1ncnc2c1c(-c1ccc(Cl)cc1)cn2-c1ccc(C)cc1	1.71

Summary for this compound, C/C=C/c1cc2c(c(=O)o1)C(=O)[C@@H](O)[C@H](C)O2 : log10 of TGI is 1.50

Summary for this compound, COC1=CC(=O)C2C(C1=O)[C@@H]1c3ccccc3OC(C)(C)[C@H]21 (stereo partly drawn) : log10 of TGI is 1.49

Summary for this compound, CC/C=C\C[C@H](O)C/C=C1/C(=O)C=C[C@@H]1C/C=C\CCCC(=O)OC(C)C : log10 of TGI is 1.01

Summary for this compound, Nc1nc2c(c(-c3ccccc3Cl)n1)COC/C2=C\c1ccccc1Cl : log10 of TGI is 1.50

Summary for this compound, O=c1cc(-c2ccccc2)oc2ccc(OC/C(=N/O)c3ccc(F)cc3)cc12 : log10 of TGI is 1.21

Summary for this compound, COc1ccc(C(=O)c2c(-c3ccccc3NC(=O)C(F)(F)F)[nH]c3ccccc23)cc1 : log10 of TGI is 1.46

====

system: SK-OV-3 ovarian; test: NCI tumour cell line growth inhibition, 48 h
measurement label: GI50

CC/C=C\C[C@H](O)C/C=C1/C(=O)C=C[C@@H]1C/C=C\CCCC(=O)OC(C)C	5.01 µM
Cc1cc(C(=O)Nc2cc(Oc3ccc4nc(NC(=O)C5CC5)cn4n3)ccc2C)n(C)n1	> 10 µM
COc1ccc(C(C#N)=C2C=CC(=NO)C=C2)cc1	29.6 µM
C=C1C(=O)O[C@H]2[C@H]1CC/C(COC(=O)c1cn(C)c3ccccc13)=C\CC[C@@]1(C)O[C@@H]21	4.33 µM

Summary for this compound, C[C@]12CC[C@@H]3c4ccc(O)cc4CC[C@H]3[C@@H]1CC[C@@H]2NS(=O)(=O)c1cccc(Cl)c1 : GI50 is 3.79 µM

Summary for this compound, COC12C=C/C(=C(/C(=O)OCCSc3ccnn3C)C(=O)CCCCCCCCC3(OC)C=C/C(=C(/C(=O)OCCSc4ccnn4C)C(=O)CCCCCCCC1)O3)O2 : GI50 is 1.66 µM

====

tested on: UACC-62 melanoma; assay: NCI tumour cell line growth inhibition, 48 h
measurement label: log10 TGI (log10 of the value in µM)
Quick note: numbers are log10 of TGI, with µM as the unit.

COC1=CC(=O)c2c(cc(COP(N)(=O)N(CCCl)CCCl)n2C)C1=O (centres undefined)	0.33
COc1cccc2c1C(=O)c1c(O)c3c(c(O)c1C2=O)C[C@@](O)(C(C)=O)C[C@@H]3OC1CC([N+]([O-])(Cc2ccccc2)Cc2ccccc2)C(O)C(C)O1 (some centres undefined)	0.45
CC(CN(C)C)S(=O)(=O)c1ccc(-c2cnc(N)c(C(=O)Nc3ccccc3)n2)cc1 (centres undefined)	1.33
Oc1[nH]c(N=C2N=c3ccccc3=N2)c2ccccc12	1.56
O=C(Nc1ccc2ncnc(Nc3ccc(Oc4cccc(F)c4)c(Cl)c3)c2c1)c1ccc(CN2CCOCC2)cc1	0.54

Below: the item to evaluate.
Summary for this molecule, N/C(=N\S(=O)(=O)c1ccc(-c2ccccn2)s1)Nc1ccc(Cl)cc1 : log10 TGI is 1.42
